Data provenance: patent US20240360238A1

Target: T1, purified human CD117 ectodomain (R&D Systems #332-SR) (human, UniProt P10721 26-524)
T1 construct: extracellular domain; Bought protein; also called c-kit; purified recombinant human CD117 ectodomain
T1 sequence (P10721 26-524): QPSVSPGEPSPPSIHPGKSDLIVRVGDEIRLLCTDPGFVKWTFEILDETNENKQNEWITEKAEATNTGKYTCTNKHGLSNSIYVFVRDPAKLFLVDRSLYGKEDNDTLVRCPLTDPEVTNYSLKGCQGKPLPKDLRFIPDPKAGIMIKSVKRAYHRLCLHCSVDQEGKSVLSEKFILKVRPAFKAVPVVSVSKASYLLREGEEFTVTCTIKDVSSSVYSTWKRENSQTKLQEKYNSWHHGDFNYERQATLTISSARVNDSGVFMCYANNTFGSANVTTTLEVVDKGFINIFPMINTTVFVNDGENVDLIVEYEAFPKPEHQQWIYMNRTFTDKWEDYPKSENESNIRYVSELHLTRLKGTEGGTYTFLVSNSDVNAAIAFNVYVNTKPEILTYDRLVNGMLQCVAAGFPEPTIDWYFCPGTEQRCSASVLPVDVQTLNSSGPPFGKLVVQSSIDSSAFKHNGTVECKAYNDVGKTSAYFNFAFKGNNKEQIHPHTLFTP
Assay: BLI (Octet Red96), IgG1 on anti-human Fc sensor, 33.3 and 11 nM ectodomain, 1:1 fit
assayReadout: Kd (nM)
Record the value in nM, omitting the unit from your answer.

// worked examples, Kd included
binder="HC-79/LC-79 (Ab79) (antibody, IgG1, V domains shown, Purified human antibody tested as an IgG1; hIgG1/hKappa; also called Antibody 79) VH: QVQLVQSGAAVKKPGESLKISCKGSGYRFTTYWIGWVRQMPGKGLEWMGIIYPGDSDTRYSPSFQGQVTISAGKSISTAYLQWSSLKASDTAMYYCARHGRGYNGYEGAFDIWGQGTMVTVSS VL: DIQLTQSPSSLSASVGDRVTITCRASQGVGSALAWYQQKPGKAPKLLIYDASILESGVPSRFSGSGSGTDFTLTISSLQPEDFATYYCQQFNSYPLTFGGGTKVEIK" endpointvalue=1.52
binder="HC-77/LC-77 (Ab77) (antibody, IgG1, V domains shown, Purified human antibody tested as an IgG1; hIgG1/hKappa; also called Antibody 77) VH: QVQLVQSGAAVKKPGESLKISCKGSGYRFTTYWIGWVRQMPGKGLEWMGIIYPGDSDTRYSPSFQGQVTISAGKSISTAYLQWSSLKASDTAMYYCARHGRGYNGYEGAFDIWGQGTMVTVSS VL: DIQLTQSPSSLSASVGDRVTITCRASQGVISALAWYQQKPGKAPKLLIYDASILESGVPSRFSGSGSGTDFTLTISSLQPEDFATYYCQQFNSYPLTFGGGTKVEIK" endpointvalue=0.684
binder="HC-1/LC-1 (Ab1) (antibody, IgG1, V domains shown, Purified IgG (IgG1); also called 001; CK6 derivative Ab1) VH: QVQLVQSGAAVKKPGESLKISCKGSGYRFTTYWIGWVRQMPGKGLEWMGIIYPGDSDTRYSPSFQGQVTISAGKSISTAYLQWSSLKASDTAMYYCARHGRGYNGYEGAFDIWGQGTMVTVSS VL: AIQLTQSPSSLSASVGDRVTITCRASQGVSSALAWYQQKPGKAPKLLIYDASSLESGVPSRFSGSGSGTDFTLTISSLQPEDFATYYCQQFNSYPLTFGGGTKVEIK" endpointvalue=3.1

Now for another entry.
Returns the measured Kd for the input binder. Input: HC-81/LC-81 (Ab81) (antibody, IgG1, V domains shown, Purified human antibody tested as an IgG1; hIgG1/hKappa; also called Antibody 81) VH: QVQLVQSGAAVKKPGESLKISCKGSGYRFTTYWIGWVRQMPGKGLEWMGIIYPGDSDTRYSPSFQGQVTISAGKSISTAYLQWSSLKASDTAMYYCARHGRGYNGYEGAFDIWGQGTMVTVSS VL: DIQLTQSPSSLSASVGDRVTITCRASQGVISALAWYQQKPGKAPKLLIYDASTLESGVPSRFSGSGSGTDFTLTISSLQPEDFATYYCQQFNSYPLTFGGGTKVEIK
0.877
